In this section, each of the compounds is paired with its reported half-life.
PROCEDURE DETAILS: Rodent pharmacokinetic study
Format: in vivo
ASSAY SETUP: plasma; Wistar/Male rat, 10 mg/kg, Intravenous; vehicle water (Ex. 8: 50% PEG 400)
Experimental: Male wistar rats (230-280 grams) obtained from NIN (National Institute of Nutrition, Hyderabad, India) were used as an experimental animal. Three to five animals were housed in each cage. […] At each time point blood was collected by jugular vein. […] The concentrations of the NCE compound in plasma were determined using LC-MS/MS method. […] The NCE compounds were quantified in plasma by validated LC-MS/MS method using solid phase extraction technique. […]
ATTRIBUTE MEASURED: half-life (h)

INSERT INTO assay_data (compound, attribute_measured, measured_value) VALUES
  ('CN1CCC(Nc2cc(S(=O)(=O)c3c[nH]c4cc(Cl)ccc34)ccc2Cl)CC1.Cl', 'half-life', 5.64),
  ('COc1ccc(S(=O)(=O)c2c[nH]c3cc(Cl)ccc23)cc1NC1CCN(C)CC1', 'half-life', 3.86),
  ('COc1ccc(S(=O)(=O)c2cc(Br)ccc2OC)cc1NC1CCN(C)CC1.Cl', 'half-life', 1.57),
  ('COc1ccc(S(=O)(=O)c2cc(Br)ccc2OC)cc1NC1CCNCC1F.Cl (stereo not shown)', 'half-life', 1.46);
